Experimental Protocol: chemical genetic growth profiling, strain panel (AID 1159580);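 note: tested at 20 µM; growth read once vehicle control cultures reached saturation at 30 °C; 1 = growth at the plate median or of vehicle wells; lower values mean less growth of the strain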
Test Parameters: S. cerevisiae deletion strains, growth OD, locus YNR052C, strain pop2, hits give low values
The whole screen tested about 5,500 compounds, of which about 2,000 (36%) were called active. Not shown: some 18% with an inconclusive outcome. The list shows a part of the results.
Measurement Name: normalized growth

Consider the reported normalized growth for these compounds:
Compound	normalized growth
CC(=O)O[C@H]1CC[C@]2(C)C3CC[C@@]4(C)C(CC5O[C@@]6(CCC(C)CO6)[C@@H](C)C54)C3CC[C@@H]2C1 (some centres undefined)	0.983 (inactive)
CC(=O)O[C@H]1CC[C@]2(C)C3CC[C@@]4(C)C(CC5O[C@@]6(CCC(C)CO6)[C@@H](C)C54)C3CC[C@H]2C1 (some centres undefined)	0.953 (inactive)
CC(=O)O[C@@H]1CC[C@]2(C)C3CC[C@]4(C)C(=O)CCC4C3CC[C@H]2C1 (some centres undefined)	0.877 (active)

Kindly consider the entry below.
Task item: Please look up its normalized growth: COc1cc2c(cc1OC)[C@@]13CCN4CC5=CCOC6CC(=O)N2C1[C@H]6[C@H]5C[C@H]43 (some centres undefined)
Reply: 0.995 (inactive)

* * *

Listed next: entries and their corresponding normalized growth.
Experimental Protocol: chemical genetic growth profiling, strain panel (AID 1159580)
Test Parameters: S. cerevisiae deletion strains, growth OD, locus YJL129C, strain trk1, hits give low values
Out of some 5,500 compounds screened, about 2,000 (36%) were called active. Another 18% or so got no clear call; they are omitted. Some of the results follow.

Compound	normalized growth
O=c1[nH]cnc2c1ncn2C1O[C@H](CO)[C@@H](O)[C@H]1O (some centres not stated)	0.994 (inactive)
NC1C[C@H]1c1ccccc1 (some centres not stated)	0.963 (inactive)
COc1ccc2c(=O)ccoc2c1	1.06 (inactive)
CC(=O)NO	0.962 (inactive)
COc1cc(/C=C/C(=O)N2CCC=CC2=O)cc(OC)c1OC	0.994 (inactive)
Cc1c(NC(=O)c2cccnc2)c(=O)n(-c2ccccc2)n1C	1.01 (inactive)
O=C(O)c1cc(=O)c2cccc(O)c2[nH]1	1.03 (inactive)
Cc1onc(-c2ccccc2Cl)c1C(=O)N[C@@H]1C(=O)N2[C@@H]1SC(C)(C)[C@@H]2C(=O)O	1.05 (inactive)

Kindly review the next compound as well.
Task item: Param item = CC1=C(O)C(=O)C=C2C1=CC=C1[C@@]2(C)CC[C@@]2(C)[C@@H]3C[C@](C)(C(=O)O)CC[C@]3(C)CC[C@]12C ; retrieve measured normalized growth.
Reply: 0.35 (active)

* * *

normalized growth values by entry
Experimental Protocol: chemical genetic growth profiling, strain panel (AID 1159580)
Test Parameters: S. cerevisiae deletion strains, growth OD, locus YML120C, strain ndi1, hits give low values
Out of some 5,500 compounds screened, about 2,000 (36%) were called active. Another 18% or so got no clear call; they are omitted. The list shows a part of the results.
Please state the value as a number alone, without comment.

Compound	normalized growth
C1CCC(C(CC2CCCCN2)C2CCCCC2)CC1 (stereo not given)	0.973

Task item: # normalized growth lookup, item CC(=O)Oc1cccc2c1C(=O)c1c(OC(C)=O)cc(C(=O)O)cc1C2=O
Reply: 0.943

Task item: Could you do the same for CC(=O)OC1CCC2(C)C3CC(=O)C4(C)C(CC5OC6(CCC(C)CO6)[C@@H](C)C54)C3CC[C@H]2C1 (stereo not given in full) , please?
Reply: 0.989

Task item: Can you handle COc1cnc(NS(=O)(=O)c2ccc(N)cc2)nc1 next?
Reply: 1.02

Task item: Then what about the compound CC(=O)O[C@H]1CC[C@]2(C)C3CC[C@@]4(C)C(CC5O[C@@]6(CCC(C)CO6)[C@@H](C)C54)C3CC[C@@H]2C1 (stereo not given in full) ?
Reply: 1.03

Task item: Another compound: C[C@]12CCC3C(CC[C@H]4C[C@H](OS(=O)(=O)O)CC[C@]34C)C1CCC2=O (stereo not given in full)
Reply: 1.05

Task item: Same again, this time with NCCNCCNCCN
Reply: 0.991

Task item: Consider next the compound O=C(NC1CCCCC1)NC1CCCCC1 in the same way.
Reply: 0.969

Task item: What about this compound? COc1cc(-c2oc3cc(O)ccc3c(=O)c2O)ccc1O
Reply: 0.975

Task item: Also, C=C(C)[C@H]1Cc2c(ccc3c2O[C@@H]2COc4cc(OC)c(OC)cc4[C@@H]2C3=O)O1 please.
Reply: 0.95

* * *

Experimental Protocol: chemical genetic growth profiling, strain panel (AID 1159580)
Test Parameters: S. cerevisiae deletion strains, growth OD, locus YPR135W, strain CTF4, hits give low values
Hit rate of the full screen: of about 5,500 compounds, about 2,000 (36%) were called active. Inconclusive results (about 18%) are left out. The list shows a part of the results.
Below, each entry is listed alongside its reported normalized growth.
In your answer, state the number alone without any accompanying words.

Task item: // returns reported normalized growth for input Cc1cc(C)cc(N2C(=O)CC(Sc3ccccc3C(=O)O)C2=O)c1 (stereo not given)
Reply: 0.222

* * *

Experimental Protocol: chemical genetic growth profiling, strain panel (AID 1159580)
Test Parameters: S. cerevisiae deletion strains, growth OD, locus YIL073C, strain SPO22, hits give low values
Out of some 5,500 compounds screened, about 2,000 (36%) were called active. Not shown: some 18% with an inconclusive outcome. This is one part of the list.
Catalogue of compounds with associated normalized growth
// keep it numeric: no unit symbol after the value

Take a look at these entries with their results.
Compound	Measurement Name	Endpoint Value
O=C1c2ccccc2C(=O)C1c1ccccc1	normalized growth	1.03
NC1C[C@H]1c1ccccc1 (some centres not stated)	normalized growth	1.01
COc1cc(O)cc(OC)c1OC	normalized growth	1.06

Task item: Look up normalized growth for this compound: COc1ccc(C2C(=O)c3ccccc3C2=O)cc1
Reply: 0.977

Task item: What do we get for NC1CC1c1ccccc1 (configuration not stated) ?
Reply: 0.972

Task item: Then this compound: C[C@]12CCC(=O)C=C1CCC1C2[C@@H](O)C[C@@]2(C)C1CC[C@]2(O)C(=O)COC(=O)CCC(=O)O (some centres not stated)
Reply: 1.02

Task item: Next compound up: COc1cc(/C=C/C=O)cc(OC)c1OC
Reply: 1.06

* * *

normalized growth values for the compounds below.
Experimental Protocol: chemical genetic growth profiling, strain panel (AID 1159580);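 note: tested at 20 µM; growth read once vehicle control cultures reached saturation at 30 °C; 1 = growth at the plate median or of vehicle wells; lower values mean less growth of the strain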
Test Parameters: S. cerevisiae deletion strains, growth OD, locus YMR058W, strain fet3, hits give low values
Among all 5,500 compounds or so, about 2,000 (36%) were called active. Inconclusive results (about 18%) are left out. This is one part of the list.

// below: answered compounds
Compound	Measurement Name	Endpoint Value
COc1ccc2c(=O)ccoc2c1	normalized growth	1.02 (inactive)
COc1c2occc2c(OC)c2c(=O)cc(C)oc12	normalized growth	0.975 (inactive)

Task item: Look up normalized growth: COc1cc2cc3c4cc(OC)c(OC)cc4cc[n+]3c(C)c2cc1OC
Reply: 1.02 (inactive)

Task item: Also COc1cccc(OC)c1C(=O)N[C@@H]1C(=O)N2[C@@H]1SC(C)(C)[C@@H]2C(=O)O ?
Reply: 1 (inactive)

* * *

Experimental Protocol: chemical genetic growth profiling, strain panel (AID 1159580);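 note: tested at 20 µM; growth read once vehicle control cultures reached saturation at 30 °C; 1 = growth at the plate median or of vehicle wells; lower values mean less growth of the strain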
Test Parameters: S. cerevisiae deletion strains, growth OD, locus YDL185W, strain tfp1
Among all 5,500 compounds or so, about 2,000 (36%) were called active. Another 18% or so got no clear call; they are omitted. Rule as the data show it: active = normalized growth mostly below about 0.91 (no sharp cut-off); inconclusive = no clear call, values can overlap the other calls; inactive = mostly above about 0.92. The list shows a part of the results.
Please reply with one of these outcomes: active, inactive

Compound	Class Name
O=C(OC[C@H]1O[C@H](OC(=O)c2cc(O)c(O)c(OC(=O)c3cc(O)c(O)c(O)c3)c2)[C@H](OC(=O)c2cc(O)c(O)c(OC(=O)c3cc(O)c(O)c(O)c3)c2)[C@@H](OC(=O)c2cc(O)c(O)c(OC(=O)c3cc(O)c(O)c(O)c3)c2)[C@@H]1OC(=O)c1cc(O)c(O)c(OC(=O)c2cc(O)c(O)c(O)c2)c1)c1cc(O)c(O)c(OC(=O)c2cc(O)c(O)c(O)c2)c1	active
COc1cc2c(cc1OC)-c1c(oc3c4c(ccc3c1=O)OC(C(C)C)C4)CO2 (centres undefined)	inactive
NC(=O)N1c2ccccc2C=Cc2ccccc21	inactive
COc1ccc2c(=O)ccoc2c1	inactive

Task item: What is the recorded call for this compound in the test? COc1cc(NS(=O)(=O)c2ccc(N)cc2)ncn1
Reply: inactive

Task item: Would you mind doing COc1c2occc2c(OC)c2c(=O)cc(C)oc12 as well?
Reply: inactive

* * *

Experimental Protocol: chemical genetic growth profiling, strain panel (AID 1159580);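 note: tested at 20 µM; growth read once vehicle control cultures reached saturation at 30 °C; 1 = growth at the plate median or of vehicle wells; lower values mean less growth of the strain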
Test Parameters: S. cerevisiae deletion strains, growth OD, locus YOR106W, strain vam3, hits give low values
About 2,000 (36%) of roughly 5,500 compounds were called active. About 18% were inconclusive and are not listed. The list shows a part of the results.
Measured normalized growth by item
Give the value as a plain number.

Compound	Endpoint Value
COc1c2occc2c(OC)c2c(=O)cc(C)oc12	0.966
CC(=O)O[C@H]1CC[C@]2(C)C3CC[C@@]4(C)C(CC5O[C@@]6(CCC(C)CO6)[C@@H](C)C54)C3CC[C@@H]2C1 (some centres not stated)	1.02
c1ccc([C@H]2CN3CCSC3=N2)cc1	1.02
CCOc1cccc(C(=O)c2ccc(O)c(O)c2O)c1	0.639
CCC1(CC)C(=O)C=CNC1=O	1.01
CC(=O)Oc1cccc2c1C(=O)c1c(OC(C)=O)cc(C(=O)O)cc1C2=O	0.905
CCNc1nc(Cl)nc(NCC)n1	1.01
CC(=O)[O][Hg][c]1ccccc1	0.0631

Task item: Given the entry CNS(=O)(=O)c1ccc(NC(=O)c2ccccc2C(=O)O)cc1 , report its measured normalized growth.
Reply: 1.01

Task item: Also CC1(C)C(=O)[C@@H]2C[C@@]3(O)C4=CC(=O)O[C@@H](c5ccoc5)[C@]4(C)CCC3[C@@](C)(C2=O)[C@H]1CC(=O)O (some centres not stated) , if possible.
Reply: 1.01

Task item: Here is the next compound: CO[C@@]1(NC(=O)Cc2cccs2)C(=O)N2C(C(=O)O)=C(COC(N)=O)CS[C@@H]21
Reply: 0.951
